Test system: NCI-H460
testProtocol: Cytotoxicity against human NCI-H460 after 48 hrs by MTT assay
Type: functional, cell-based

moleculeSmiles	Activity
C[C@@H]1C[C@H](O)[C@@]2(OC1=O)O[C@H]1C[C@H]3[C@@H]4CC[C@H]5C[C@@H](O[C@@H]6O[C@H](CO)[C@H](O[C@@H]7O[C@H](CO)[C@@H](O)[C@H](O[C@@H]8OC[C@@H](O)[C@H](O)[C@H]8O)[C@H]7O[C@@H]7OC[C@H](O)[C@H](O)[C@H]7O)[C@H](O)[C@H]6O[C@@H]6O[C@@H](C)[C@H](O)[C@@H](O)[C@H]6O)CC[C@]5(C)[C@H]4CC[C@]3(C)[C@H]1[C@@H]2C	Not toxic
C[C@@H]1C[C@H](O)[C@@]2(OC1=O)O[C@H]1[C@H](O)[C@H]3[C@@H]4CC[C@H]5C[C@@H](O[C@@H]6O[C@H](CO)[C@H](O[C@@H]7O[C@H](CO)[C@@H](O)[C@H](O[C@@H]8OC[C@@H](O)[C@H](O)[C@H]8O)[C@H]7O[C@@H]7OC[C@H](O)[C@H](O)[C@H]7O)[C@H](O)[C@H]6O[C@@H]6O[C@@H](C)[C@H](O)[C@@H](O)[C@H]6O)CC[C@]5(C)[C@H]4CC[C@]3(C)[C@H]1[C@@H]2C	Not toxic
C[C@@H]1C[C@H](O)[C@@]2(OC1=O)O[C@H]1[C@H](O)[C@H]3[C@@H]4CC[C@H]5C[C@@H](O[C@@H]6O[C@H](CO)[C@H](O[C@@H]7O[C@H](CO)[C@@H](O)[C@H](O[C@@H]8O[C@H](CO)[C@@H](O)[C@H](O)[C@H]8O)[C@H]7O[C@@H]7O[C@H](CO)[C@@H](O)[C@H](O)[C@H]7O)[C@H](O)[C@H]6O)CC[C@]5(C)[C@H]4CC[C@]3(C)[C@H]1[C@@H]2C	Not toxic
C[C@@H]1CC[C@@]2(OC1)O[C@H]1C[C@H]3[C@@H]4CC=C5C[C@@H](O[C@@H]6O[C@H](CO)[C@@H](O[C@@H]7O[C@@H](C)[C@H](O)[C@@H](O)[C@H]7O[C@@H]7O[C@H](CO)[C@@H](O)[C@H](O)[C@H]7O)[C@H](O)[C@H]6O[C@@H]6O[C@@H](C)[C@H](O)[C@@H](O)[C@H]6O)CC[C@]5(C)[C@H]4CC[C@]3(C)[C@@]1(O)[C@@H]2C	Not toxic
